# tested system: ATP-binding cassette sub-family B member 6 (Homo sapiens) (UniProt Q9NP58)
# Sequence (Q9NP58 whole entry, looked up): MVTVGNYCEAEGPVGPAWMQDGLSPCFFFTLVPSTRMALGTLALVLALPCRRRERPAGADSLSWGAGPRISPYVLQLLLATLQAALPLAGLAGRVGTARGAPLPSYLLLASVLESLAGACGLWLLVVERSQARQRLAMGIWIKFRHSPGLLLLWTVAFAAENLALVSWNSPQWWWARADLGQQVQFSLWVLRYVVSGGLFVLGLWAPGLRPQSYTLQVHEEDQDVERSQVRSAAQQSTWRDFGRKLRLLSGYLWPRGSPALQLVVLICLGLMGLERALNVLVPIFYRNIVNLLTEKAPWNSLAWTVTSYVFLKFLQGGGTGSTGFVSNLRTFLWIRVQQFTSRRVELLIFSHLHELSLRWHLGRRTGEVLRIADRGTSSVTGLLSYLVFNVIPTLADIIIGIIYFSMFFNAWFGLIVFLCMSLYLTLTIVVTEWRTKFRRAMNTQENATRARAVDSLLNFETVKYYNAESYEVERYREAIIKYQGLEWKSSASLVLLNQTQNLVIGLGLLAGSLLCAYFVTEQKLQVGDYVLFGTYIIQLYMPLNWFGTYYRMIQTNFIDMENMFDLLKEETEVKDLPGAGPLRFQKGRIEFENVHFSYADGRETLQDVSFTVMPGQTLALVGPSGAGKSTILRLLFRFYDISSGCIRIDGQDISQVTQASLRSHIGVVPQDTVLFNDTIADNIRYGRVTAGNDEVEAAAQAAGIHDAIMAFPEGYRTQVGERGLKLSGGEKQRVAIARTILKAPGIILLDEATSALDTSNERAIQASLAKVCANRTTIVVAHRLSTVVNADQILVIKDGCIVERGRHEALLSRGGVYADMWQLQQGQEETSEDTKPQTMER
# protocol text: ABCB6 transporter inhibitors, primary screen, K562-ABCB6 cells, flow cytometry, MLPCN library (AID 602162);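 also: signal is porphyrin accumulated inside mitochondria; 100% equals median channel fluorescence of DMSO control wells; lower ratio means ABCB6 inhibition with less porphyrin fluorescence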
# measurement setup: K562-ABCB6 porphyrin accumulation, 1 h, at 10 µM, hits give low values
The campaign covered roughly 360,000 compounds. About 690 (0.19%) were called active. Only a selection was taken, and actives are over-represented in it overall.
Each entry below carries its recorded fluorescence ratio to DMSO.
Give your result in % as a bare value.

Cc1cccc(N2CCN(C(=O)CCS(=O)(=O)c3ccc4c(c3)NC(=O)C(C)S4)CC2)c1C (stereo unspecified) :: 74
O=C(OCC(=O)N1CCCCC1)c1ccc(OC(F)(F)F)cc1 :: 95
ON=C1/C(=N\O)CC2(C/C1=N/O)OCCO2 :: 103
O=C1CCCC2=C1C(c1cccs1)CC(=O)N2c1ccc(F)cc1 (stereo unspecified) :: 95

Challenge: Hello, I am looking for reported fluorescence ratio to DMSO with ATP-binding cassette sub-family B member 6 (Homo sapiens) (UniProt Q9NP58) for O=C1CCCC2=C1C(c1cccs1)n1nc(SCc3ccccc3)nc1N2 (stereo unspecified) . Could you help?
Response given: 55

Challenge: Hello, I am looking for reported fluorescence ratio to DMSO with ATP-binding cassette sub-family B member 6 (Homo sapiens) (UniProt Q9NP58) for C=CCn1c(SCC(=O)NCc2ccccc2)nnc1-c1cc(Br)ccc1O . Could you help?
Response given: 53

Challenge: Hello, I am looking for reported fluorescence ratio to DMSO with ATP-binding cassette sub-family B member 6 (Homo sapiens) (UniProt Q9NP58) for O=C(Nc1cc(=O)[nH]c2ncnn12)c1ccccc1Cl . Could you help?
Response given: 101

Challenge: Hello, I am looking for reported fluorescence ratio to DMSO with ATP-binding cassette sub-family B member 6 (Homo sapiens) (UniProt Q9NP58) for CC1Sc2ccc(S(=O)(=O)CCC(=O)NCc3ccccc3Cl)cc2NC1=O (stereo unspecified) . Could you help?
Response given: 93

Challenge: Hello, I am looking for reported fluorescence ratio to DMSO with ATP-binding cassette sub-family B member 6 (Homo sapiens) (UniProt Q9NP58) for CCC(=O)N1c2ccccc2NC2=C(C(=O)CCC2)C1c1ccco1 (stereo unspecified) . Could you help?
Response given: 101

Challenge: Hello, I am looking for reported fluorescence ratio to DMSO with ATP-binding cassette sub-family B member 6 (Homo sapiens) (UniProt Q9NP58) for O=S1(=O)CC(N2CCN(Cc3ccccc3F)CC2)CN1Cc1cn(Cc2cccc(C(F)(F)F)c2)nn1 (stereo unspecified) . Could you help?
Response given: 96

Challenge: Hello, I am looking for reported fluorescence ratio to DMSO with ATP-binding cassette sub-family B member 6 (Homo sapiens) (UniProt Q9NP58) for CC12CCCCC1=CC(=O)CC2 (stereo unspecified) . Could you help?
Response given: 101

----------
# tested system: ATP-binding cassette sub-family B member 6 (Homo sapiens)
# protocol text: ABCB6 transporter inhibitors, primary screen, K562-ABCB6 cells, flow cytometry, MLPCN library (AID 602162)
# measurement setup: K562-ABCB6 porphyrin accumulation, 1 h, at 10 µM, hits give low values
The whole screen tested about 360,000 compounds, of which about 690 (0.19%) were called active. Only a selection was taken, and actives are over-represented in it overall.
Each entry below carries its recorded fluorescence ratio to DMSO.
Give your result in % as a bare value.

Consider the worked cases shown below.
Cc1cc(C)c(C(=O)CSc2nc(C)cc(=O)[nH]2)c(C)c1 :: 101
CC1CCN(C(=O)CSc2nnc(-c3ccco3)n2N)CC1 :: 95
Cc1ccc2[nH]c3c(=O)n(CC(=O)NCCc4ccc(Cl)cc4)ncc3c2c1 :: 96
COc1ccccc1C(=O)Nn1cnnc1 :: 100
CCc1ccccc1OCC(=O)Nc1ccc(C)c(S(=O)(=O)N2CCCCCC2)c1 :: 90

Challenge: // returns reported fluorescence ratio to DMSO for input O=C1OC(Oc2ccc(Br)cc2)(c2ccccc2)c2ccccc21 (stereo unspecified)
Response given: 93

Challenge: // returns reported fluorescence ratio to DMSO for input COc1ccccc1C(=O)C(O)c1ccccc1OC (stereo unspecified)
Response given: 73

Challenge: // returns reported fluorescence ratio to DMSO for input CC(C)(C)C(=O)c1cnc(Nc2ccccc2)s1
Response given: 94

Challenge: // returns reported fluorescence ratio to DMSO for input Cc1ncn2cc(-c3ccc(Cl)cc3Cl)[nH]c(=O)c12
Response given: 96

Challenge: // returns reported fluorescence ratio to DMSO for input Cc1cc(C(=O)CSc2nc(N)cc(=O)[nH]2)c(C)n1CCc1ccc(Cl)cc1
Response given: 95

Challenge: // returns reported fluorescence ratio to DMSO for input CC1CCN(S(=O)(=O)c2nnc(NC(=O)COc3ccccc3F)s2)CC1
Response given: 100

----------
# tested system: ATP-binding cassette sub-family B member 6 (Homo sapiens) (UniProt Q9NP58)
# protocol text: ABCB6 transporter inhibitors, primary screen, K562-ABCB6 cells, flow cytometry, MLPCN library (AID 602162);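 also: signal is porphyrin accumulated inside mitochondria; 100% equals median channel fluorescence of DMSO control wells; lower ratio means ABCB6 inhibition with less porphyrin fluorescence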
# measurement setup: K562-ABCB6 porphyrin accumulation, 1 h, at 10 µM, hits give low values
Hit rate of the full screen: of about 360,000 compounds, about 690 (0.19%) were called active. Shown is part of a subset that was picked to be rich in actives.
assay metric: fluorescence ratio to DMSO (%)
Give your result in % as a bare value.

Consider the worked cases shown below.
Cc1cccc(C(=O)Nc2ccc(Oc3cnccn3)cc2)c1 :: 98
CN(CC(=O)Nc1ccc(F)cc1)CC(=O)Nc1ccc(Cl)c(S(=O)(=O)N2CCOCC2)c1 :: 100
CCOc1ccc(NC(=O)CC2NCCNC2=O)cc1 (centres undefined) :: 73
Nc1nc(SCc2cccc(Br)c2)n[nH]1 :: 98
Cc1ccc(CN(C(=O)c2sc3ccccc3c2Cl)C2CCS(=O)(=O)C2)cc1 (centres undefined) :: 95
Cc1cc(Cl)ccc1OCCCC(=O)NCc1ccccn1 :: 89
CCN(CC(=O)Nc1ccc(NC(C)=O)cc1)C(=O)C1CC(=O)N(c2ccc3c(c2)OCCO3)C1 (centres undefined) :: 91
Cc1ccc(C(=O)Nc2ccccc2-c2ccccc2)cc1S(=O)(=O)Nc1ccccc1 :: 99
CCOc1ccc(NC(=O)CCC(=O)NNC(=O)NC2CCCCC2)cc1 :: 98
Cc1cccc(NS(=O)(=O)c2ccc(C)c(C(=O)NCc3cccnc3)c2)c1 :: 98

Challenge: // returns reported fluorescence ratio to DMSO for input COC(=O)c1ccc(CSc2ccc(S(=O)(=O)N3CCCCC3)cn2)cc1
Response given: 100

Challenge: // returns reported fluorescence ratio to DMSO for input CS(=O)(=O)N(CC(=O)N1CCN(c2ccc(F)cc2)CC1)C1CCCCC1
Response given: 94

Challenge: // returns reported fluorescence ratio to DMSO for input COc1cc([N+](=O)[O-])ccc1NC(=S)N1CCN(c2ccccn2)CC1
Response given: 98

----------
# tested system: ATP-binding cassette sub-family B member 6 (Homo sapiens) (UniProt Q9NP58)
# protocol text: ABCB6 transporter inhibitors, primary screen, K562-ABCB6 cells, flow cytometry, MLPCN library (AID 602162);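 also: signal is porphyrin accumulated inside mitochondria; 100% equals median channel fluorescence of DMSO control wells; lower ratio means ABCB6 inhibition with less porphyrin fluorescence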
# measurement setup: K562-ABCB6 porphyrin accumulation, 1 h, at 10 µM
About 690 (0.19%) of roughly 360,000 compounds were called active.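 How the source made its calls: active means fluorescence ratio to DMSO below 75%, the collection mean minus 3 SD; inconclusive means too few cells collected in the well; inactive means the rest.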 This excerpt belongs to a sample that is enriched for actives.
Parameter call: string, one of active, inactive

Example cases with answers are listed next.
Cc1nn(-c2ccccc2)c(C)c1C(=O)OCC(=O)NC(=O)NC1CCCCC1 :: active
O=C(Cc1cccs1)NCc1cccc(C(F)(F)F)c1 :: active

Challenge: # lookup: test call for C=CCn1c(SCC(=O)NC(=O)Cc2ccccc2)nc2ccccc2c1=O
Response given: inactive

----------
# tested system: ATP-binding cassette sub-family B member 6 (Homo sapiens)
# protocol text: ABCB6 transporter inhibitors, primary screen, K562-ABCB6 cells, flow cytometry, MLPCN library (AID 602162);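 also: signal is porphyrin accumulated inside mitochondria; 100% equals median channel fluorescence of DMSO control wells; lower ratio means ABCB6 inhibition with less porphyrin fluorescence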
# measurement setup: K562-ABCB6 porphyrin accumulation, 1 h, at 10 µM, hits give low values
About 690 (0.19%) of roughly 360,000 compounds were called active. For the sample, actives were picked, then their nearest neighbours and some compounds at random.
assay metric: fluorescence ratio to DMSO (%)
Give your result in % as a bare value.

COC(=O)c1ccc(C2NC(=O)NC(C)=C2C(=O)N(C)C)cc1 (stereo unspecified) :: 117
CC1(C(=O)Nc2ccc3c(c2)OCCO3)CCN1C(=O)Cc1cc(F)ccc1F (stereo unspecified) :: 100

Challenge: // returns reported fluorescence ratio to DMSO for input CC1(C)Cc2c(C#N)c(SCc3nc4ccccc4[nH]3)nc(N3CCOCC3)c2CO1
Response given: 74

Challenge: // returns reported fluorescence ratio to DMSO for input COc1ccc(S(=O)(=O)N2CCOCC2)cc1NC(=O)CSc1ncnc2ccccc12
Response given: 92

Challenge: // returns reported fluorescence ratio to DMSO for input COc1ccc(C(=O)OCC(=O)c2ccc(Cl)s2)c(OC)c1OC
Response given: 101

Challenge: // returns reported fluorescence ratio to DMSO for input CCn1c(SCC(=O)Nc2ccc3c(c2)OCCO3)nnc1C(C)C
Response given: 88

Challenge: // returns reported fluorescence ratio to DMSO for input O=C(CSc1nncs1)NC1CCCc2ccccc21 (stereo unspecified)
Response given: 104

Challenge: // returns reported fluorescence ratio to DMSO for input CCc1ccc(-c2cc(C(=O)NN3CCN(C)CC3)c3ccccc3n2)cc1
Response given: 99

Challenge: // returns reported fluorescence ratio to DMSO for input CC(=O)c1cccc(NC(=O)CN2C(=O)c3cccnc3Oc3ccc(Cl)cc32)c1
Response given: 114

Challenge: // returns reported fluorescence ratio to DMSO for input COC(=O)CNC(=O)c1cc(-c2ccncc2)nc2ccccc12
Response given: 70

Challenge: // returns reported fluorescence ratio to DMSO for input COc1ccc(/C=C(\NC(=O)c2ccc(OCC(C)C)cc2)C(=O)OCc2ccco2)cc1
Response given: 100

Challenge: // returns reported fluorescence ratio to DMSO for input CCOC(=O)CSc1nc(N2CCOCC2)c2c(c1C#N)CC(C(C)C)OC2 (stereo unspecified)
Response given: 97

Challenge: // returns reported fluorescence ratio to DMSO for input CC1CCCCC1NC(=O)NC(=O)COC(=O)C1=NN(c2ccccc2)C(=O)CC1 (stereo unspecified)
Response given: 102

Challenge: // returns reported fluorescence ratio to DMSO for input COc1cccc(NC(=O)CS(=O)(=O)c2cn(CC(=O)N3CCOCC3)c3ccccc23)c1
Response given: 97

Challenge: // returns reported fluorescence ratio to DMSO for input CC(C)C(=O)N1CCN(c2nc(-c3ccccc3)c3c(c2C#N)CC(C)(C)OC3)CC1
Response given: 111

Challenge: // returns reported fluorescence ratio to DMSO for input Cc1nn(-c2ccccc2)c2[nH]c(C(F)(F)F)cc(=O)c12
Response given: 87

Challenge: // returns reported fluorescence ratio to DMSO for input CCOc1ccc(CCNC(=O)COC(=O)c2ccc(C)c(S(=O)(=O)N3CCOCC3)c2)cc1OCC
Response given: 101

Challenge: // returns reported fluorescence ratio to DMSO for input CCOC(=O)C1=C(C)NC2=C(C(=O)CC(C)(C)C2)C1c1ccsc1 (stereo unspecified)
Response given: 100

Challenge: // returns reported fluorescence ratio to DMSO for input Fc1cccc(Cc2noc(CN3CCN(c4cnccn4)CC3)n2)c1
Response given: 95

Challenge: // returns reported fluorescence ratio to DMSO for input COC(=O)C(=Nc1ccccc1)/C(C(=O)C(=O)N(C)c1ccccc1)=C(\O)c1ccc(Cl)cc1
Response given: 94

Challenge: // returns reported fluorescence ratio to DMSO for input O=C1COc2ccc(S(=O)(=O)NCCc3ccc(Cl)cc3)cc2N1
Response given: 93

Reference source for all entries: PubChem BioAssay AID602162
